# targetDesc: HLA-A*02:01;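 also: lysates heated 10 min at 37–73 °C, complexes pulled down with pan-HLA I antibody, peptide signal by DIA-MS relative to 37 °C, Tm where half the complex is unfolded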
# methodDescription: thermal melting temperature (Tm) of peptide-HLA complex; higher = more thermostable pHLA complex
# conditionNotes: C1R-A*02:01
The full ranking holds about 1,100 sequences; the median of “thermal melting temperature (Tm) of peptide-HLA complex” is about 58, and the lowest 2% start at about 42. The full list was thinned out, with the lowest values kept by preference.
measuredMetric: thermal melting temperature (°C)
Reply with just the number (in °C).

Some solved entries appear below for comparison.
biopolymerSequence	thermal melting temperature / °C
SILSEVQQA	53.3
QLLPSIPQL	53.7
RIIDTVAQV	60.6

--- query ---
Prompt line: What value of thermal melting temperature has been reported for the following sequence? `VLQGKLAEV`
Response line: 53.5

Origin of measurements: the supplement of paper PMC7726561
